Here, compounds appear alongside pIC50 reported for UniProt P00591 in the literature.
Answers are plain numbers, as −log10 of the molar value.

O=c1oc(OCc2ccccc2)nn1-c1ccc(OC(F)(F)F)cc1 | 6.30

Report pIC50 for every entry below.
1. CCCCCCCCCCCC1=C(OC(=O)c2ccccc2F)C(=O)C=C(OC(=O)c2ccccc2F)C1=O
2. COc1nn(-c2cccc(OCc3ccccc3)c2)c(=O)o1
3. COc1ccccc1NC(=O)OC1CCCCC1C(C)C (stereo not drawn)
4. CCCCNC(=O)OC1CC(C)CC(C)C1 (stereo not drawn)
5. CCCCCCCCCCCC1=C(OC(=O)c2cccc(Br)c2)C(=O)C=C(OC(=O)c2cccc(Br)c2)C1=O

5.11
6.10
3.64
3.26
4.87

Sample CCC(C)NC(=O)OC1CCCC(C)C1C (stereo not drawn) — what was its pIC50?
3.14

* * *

System: Pancreatic triacylglycerol lipase (Sus scrofa) | Read-out: IC50 | Origin: multiple publications
Please use the following IC50 ranges when assigning a class: Low = under 2 µM, Mid = from 2 µM up to 70 µM, High = 70 µM and over

CCCCCCCCCCCC1=C(OC(=O)c2cccc([N+](=O)[O-])c2)C(=O)C=C(OC(=O)c2cccc([N+](=O)[O-])c2)C1=O | Mid
CCCCNC(=O)OC1CC(C)CC(C)(C)C1 (centres unmarked) | High
CC1CC(C)CC(OC(=O)NCc2ccccc2)C1 (centres unmarked) | High
O=c1oc(Nc2ccc(Oc3ccccc3)cc2)nc2sc(Cl)cc12 | Low
CCCCCCCCCCCCCCCCNc1nc2sc(C)cc2c(=O)o1 | Low

Pick a category. Item: CCCCCCCCCCCC1=C(OC(=O)c2ccc(F)cc2)C(=O)C=C(OC(=O)c2ccc(F)cc2)C1=O
High

Repeat with COc1nn(-c2ccc(NC(=O)c3ccc(C(F)(F)F)cc3)c(OCc3ccccc3)c2)c(=O)o1
Low

Again, but for CCCCCCCCOc1nn(-c2ccccc2)c(=O)o1
Low

Note, next up: CCCCCCCCCCCC1=C(OC(=O)c2ccc(Cl)cc2)C(=O)C=C(OC(=O)c2ccc(Cl)cc2)C1=O
Mid

Thanks! And Oc1cc(O)c2c(c1)O[C@H](c1ccc(O)c(O)c1)[C@H](O)[C@H]2c1c(O)cc(O)c2c1O[C@H](c1ccc(O)c(O)c1)[C@H](O)C2 ?
Mid

* * *

Published pIC50 for Pancreatic triacylglycerol lipase (Sus scrofa), assembled from different documents, is shown next.
Answers are plain numbers, as −log10 of the molar value.

Please review the entries below; each comes with its answer.
CCCCCCCCCCCCCCCCOc1nn(-c2ccc(Oc3ccc(Cl)cc3)cc2)c(=O)o1 | 5.70
CCCCCCCCCCCCOc1nn(-c2ccc(OC(F)(F)F)cc2)c(=O)o1 | 7.52
CCCCNC(=O)OC1CCCC(C)C1 (stereo not shown) | 3.29

Next up:
Param readout = pIC50; param system = Pancreatic triacylglycerol lipase (Sus scrofa); param query = CCOc1nn(-c2ccc(OC(F)(F)F)cc2)c(=O)o1 ; response: value
6.15

* * *

Literature survey of IC50 (system: Pancreatic triacylglycerol lipase (Sus scrofa)).

Example entries begin here.
CCCCCCCCCCCC1=C(OC(=O)c2cccc(F)c2)C(=O)C=C(OC(=O)c2cccc(F)c2)C1=O | < 6.25 µM
O=C(O[C@@H]1O[C@H](CO)[C@@H](O)[C@H](O)[C@H]1O)c1cc(O)c(O)c(O)c1 | > 50 µM

Then there is this molecule:
Fill in the recorded IC50 for this molecule, with Pancreatic triacylglycerol lipase (Sus scrofa) as test system: Cc1cc2c(=O)oc(Nc3ccc(Oc4ccccc4)cc3)nc2s1
≤ 1 µM
